# TARGET: Fatty acid synthase (Homo sapiens) (UniProt P49327)
# Sequence (P49327 whole entry, looked up): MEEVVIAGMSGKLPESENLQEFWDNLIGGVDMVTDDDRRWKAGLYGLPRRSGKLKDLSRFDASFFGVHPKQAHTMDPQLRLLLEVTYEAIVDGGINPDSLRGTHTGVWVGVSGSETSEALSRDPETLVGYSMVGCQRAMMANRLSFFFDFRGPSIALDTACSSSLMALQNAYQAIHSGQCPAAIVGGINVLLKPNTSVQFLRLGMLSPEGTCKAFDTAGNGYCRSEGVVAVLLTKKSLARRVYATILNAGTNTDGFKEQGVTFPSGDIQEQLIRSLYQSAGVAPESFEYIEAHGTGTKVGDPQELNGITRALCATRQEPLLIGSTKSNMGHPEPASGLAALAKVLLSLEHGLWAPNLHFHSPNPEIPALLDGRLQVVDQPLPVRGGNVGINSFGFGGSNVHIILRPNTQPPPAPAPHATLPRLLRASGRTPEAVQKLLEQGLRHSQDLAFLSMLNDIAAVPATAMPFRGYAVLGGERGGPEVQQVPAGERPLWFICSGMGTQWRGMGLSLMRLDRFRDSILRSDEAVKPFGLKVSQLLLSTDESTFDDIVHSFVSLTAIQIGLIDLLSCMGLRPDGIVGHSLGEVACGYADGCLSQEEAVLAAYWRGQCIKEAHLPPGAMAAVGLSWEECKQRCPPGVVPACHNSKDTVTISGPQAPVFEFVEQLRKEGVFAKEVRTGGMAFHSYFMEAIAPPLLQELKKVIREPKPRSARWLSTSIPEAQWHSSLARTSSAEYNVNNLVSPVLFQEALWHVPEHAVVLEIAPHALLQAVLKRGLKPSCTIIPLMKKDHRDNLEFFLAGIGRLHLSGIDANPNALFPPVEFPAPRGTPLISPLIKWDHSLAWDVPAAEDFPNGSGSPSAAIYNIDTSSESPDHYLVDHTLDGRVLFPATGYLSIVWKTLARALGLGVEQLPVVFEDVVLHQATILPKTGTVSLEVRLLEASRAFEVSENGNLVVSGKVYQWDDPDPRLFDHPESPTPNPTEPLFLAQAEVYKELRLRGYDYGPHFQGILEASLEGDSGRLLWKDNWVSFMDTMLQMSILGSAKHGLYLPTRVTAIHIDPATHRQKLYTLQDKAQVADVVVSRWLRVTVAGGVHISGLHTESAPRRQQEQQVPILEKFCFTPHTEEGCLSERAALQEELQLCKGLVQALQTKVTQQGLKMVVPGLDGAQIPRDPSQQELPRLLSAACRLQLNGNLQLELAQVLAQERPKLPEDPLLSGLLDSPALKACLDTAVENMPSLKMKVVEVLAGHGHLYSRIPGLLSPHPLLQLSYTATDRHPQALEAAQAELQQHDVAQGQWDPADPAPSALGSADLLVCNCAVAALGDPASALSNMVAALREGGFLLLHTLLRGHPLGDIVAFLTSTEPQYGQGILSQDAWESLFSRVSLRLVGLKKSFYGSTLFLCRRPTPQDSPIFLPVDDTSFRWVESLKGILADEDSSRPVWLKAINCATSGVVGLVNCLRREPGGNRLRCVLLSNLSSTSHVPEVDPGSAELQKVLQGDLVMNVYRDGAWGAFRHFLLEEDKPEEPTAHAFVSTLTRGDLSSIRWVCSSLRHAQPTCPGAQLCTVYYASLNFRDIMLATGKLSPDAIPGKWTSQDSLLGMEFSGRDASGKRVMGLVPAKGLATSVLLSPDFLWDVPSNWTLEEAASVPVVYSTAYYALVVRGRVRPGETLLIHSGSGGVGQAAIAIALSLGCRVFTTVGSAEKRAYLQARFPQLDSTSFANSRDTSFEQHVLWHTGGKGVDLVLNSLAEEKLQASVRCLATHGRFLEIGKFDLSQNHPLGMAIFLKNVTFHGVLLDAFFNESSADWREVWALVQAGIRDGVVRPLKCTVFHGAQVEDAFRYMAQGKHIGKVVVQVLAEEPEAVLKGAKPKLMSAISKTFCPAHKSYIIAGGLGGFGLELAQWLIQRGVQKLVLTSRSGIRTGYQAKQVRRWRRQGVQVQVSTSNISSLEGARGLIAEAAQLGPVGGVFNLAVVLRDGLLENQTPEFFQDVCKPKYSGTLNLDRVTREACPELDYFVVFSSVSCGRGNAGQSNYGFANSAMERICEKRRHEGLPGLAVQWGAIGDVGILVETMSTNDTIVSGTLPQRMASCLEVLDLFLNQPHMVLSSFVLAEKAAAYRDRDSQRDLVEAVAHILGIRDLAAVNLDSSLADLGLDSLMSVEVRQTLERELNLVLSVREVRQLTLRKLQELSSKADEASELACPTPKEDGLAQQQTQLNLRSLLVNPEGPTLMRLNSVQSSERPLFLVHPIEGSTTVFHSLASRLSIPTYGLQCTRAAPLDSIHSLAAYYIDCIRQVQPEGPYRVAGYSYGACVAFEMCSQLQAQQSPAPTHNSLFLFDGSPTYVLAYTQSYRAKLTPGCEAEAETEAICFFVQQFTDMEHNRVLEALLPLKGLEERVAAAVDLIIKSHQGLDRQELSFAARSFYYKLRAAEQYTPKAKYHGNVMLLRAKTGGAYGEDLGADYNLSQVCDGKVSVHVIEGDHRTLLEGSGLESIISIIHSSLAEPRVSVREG
# MEASUREMENT_NOTES: inhibition of human FAS-TE enzyme activity – biochemical, fluorescence intensity, single concentration, confirmation (AID 624325)
# CONDITION: recombinant FAS-TE, OMFH fluorogenic substrate, at 15 µM
The campaign covered roughly 2,300 compounds. About 1,000 (43%) were called active.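 Rule for the calls: active = compounds inhibiting the enzyme by at least 50% at 15 µM in any one of the replicates; inactive = the rest.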 So high a share suggests a set chosen from earlier hits. Only a sample is shown.
Possible outcomes: active, inactive

compound=CC(=O)c1sc(N/N=C/c2ccc(C(C)C)cc2)nc1C class=inactive
compound="CCOc1ccc(Br)cc1S(=O)(=O)Nc1ccc(C(=O)OC(C)C(=O)N(C)c2ccccc2)cc1 (stereo not given)" class=inactive
compound=CC(C)Oc1ccc(Cc2n[nH]c(=S)n2Cc2ccccc2)cc1Cl class=active
compound=CCOc1ccc(Nc2nc(Cl)nc(N3CCN(c4ccc(OC)cc4)CC3)n2)cc1 class=inactive
compound=CCCN1Cc2cccc(C(=O)Nc3ccc(S(=O)(=O)N4CCCCCC4)cc3)c2C1=O class=inactive
compound=Cc1ccc(S/C(=N\S(=O)(=O)c2ccc(Cl)cc2)c2ccccc2)cc1 class=inactive
compound="CCCCCOC(=O)c1ccc(N2C(=O)C3C4C=CC(C4)C3C2=O)cc1 (stereo not given)" class=active
compound=CC1=CC(=C(C#N)c2nc3ccccc3s2)C=C(C)N1c1ccc(F)cc1F class=inactive
compound=C/C(=N\Nc1nc(N2CCOCC2)nc(N2CCOCC2)n1)c1ccc([N+](=O)[O-])cc1 class=active
compound=CCCCOC(=O)CNc1nnc(SCC(=O)OCC)[nH]c1=O class=active
